# ASSAY SUMMARY: 14C assay: 14CO2 capture from [14C]-carboxyl-labeled dicamba with IPTG-induced recombinant E. coli cells
# CONDITION INFO: IPTG-induced recombinant E. coli cells; 14CO2 from [14C]-carboxyl-labeled dicamba

MOLECULE: 76 (protein, listed as Polymorphum gilvum) MAKKIDIFNHIWPEPFFKALIAHIGEMTDITMRSGAVPMMTNLDRRFEVMDMFGPDYMQVLSLASPPLEKLADPAKALELSRIGSDSLAELCQRYPERFPAFIGTAPLSNPAAVVGECRRAIEDLGAAGMQIFTNVAGKPLDLAEFEPFFEYMASAGKPVWLHPARGEAFADYQTEKRSEYEIWWTFGWPYETSAAMARLVFSRMFDKYPGLKVITHHAGGMVPFFEGRVGPGWDQMGARTTDRDLAAVRKALKRPHLDYFKEFYADTASFGSRKAIEHAIEFFGEDRVLFASDAPFDPEGGPMYIRETMRCIDSLDLTDAQRRKIYHGNATALLGLSL
Dicamba Decarboxylase Activity: No

MOLECULE: 16 (protein, listed as Staphylococcus aureus) MAQNNMEANQMKSITFEEHYVIEDIQKETMNAISADPKGVPMKVMLEGLEKKTGFTNADELSHHDERIQFMNNQDVQIQVLSYGNGSPSNLVGQKAIELCQKANDQLANYIAQYPNRFVGFATLPINEPETAAREFERCINDLGFKGALIMGRAQDGFLDQDKYDIIFKTAENLGVPIYLHPAPVNSDIYQSYYKGNYPEVTAATFACFGYGWHIDVGIHAIHLVLSGIFDRYPKLNMIIGHWGEFIPFFLERMDEALFAEHLNHPVSYYFKNNFYITPSGMLTKPQFDLVKKEAGIDRILYAADYPYIEPEKLGVFLDELGLTDEEKEKISYTNGAKLLGLSSNN
Dicamba Decarboxylase Activity: High

MOLECULE: 78 (protein, listed as Marinobacter adhaerens) MALIDLHAHAPHPDYYDQHPHWGPAFELQSDGDIKLRVGHWVLSLGAPERKQALREAHARGETLDVQEYMAKWRDPEHRLASMDAAGQNAQVLSVPSHCYMYWAEPEFGVPFAKKVNDSLAEYCSAAPDRLMFWAHAPLNVPKEAAKEIRRACTELGAKGLVAGGSNFGGLEFDSPEMDPVWEALCDLDLPMFVHGYNQSVTWGEEANTDRYETTAIVGMNYDESKCFWYMINGGVFDRFPNLKVYITHGGGFVPYQLGRMAQTNPNLDTYHNKKPFLEYLKNFYFDVELHEVPMRQAMVEVIGADRVLYGSNFGGSDAVRHDLTDDLKLSQEDLDKIRWKNACDLLHLDPNKLGKVRG
Dicamba Decarboxylase Activity: Low

MOLECULE: 45 (protein, Mycobacterium sp) MANDDLAEVIAAHPDRFAGFAALPMRDPQAAAVELQRAVGTHGFCGAMINGLIEGRFLDDPAFAPLLSTAADLGVPLYLHPSFPPPQVAEIYFGGLAPVLGDLLATAGWGWHAETALHVLRLVATGVFDRLPELWVIVGHMGEMIPFALARIDTVLSPVAQLRQPVAQYFQTNVWFTTSGYTTFPPLQCALSTVGIDRLIFSVDYPYTDNTSARALLDTAPISPVDREKLAHGTVEALLRV
Dicamba Decarboxylase Activity: No

Value source: patent US20140289906A1
